- assay.target: rhuman cathepsin K (Homo sapiens)
- Sequence (P43235 115-329): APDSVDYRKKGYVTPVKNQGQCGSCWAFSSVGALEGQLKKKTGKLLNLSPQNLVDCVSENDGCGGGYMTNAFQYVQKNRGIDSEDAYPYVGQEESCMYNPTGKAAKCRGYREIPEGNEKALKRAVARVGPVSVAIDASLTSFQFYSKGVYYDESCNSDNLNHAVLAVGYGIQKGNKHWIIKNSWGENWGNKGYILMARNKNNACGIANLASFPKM
- experimental.details: Assay for identification of Cathepsin K inhibitors (QFRET, cleavage of Z-Phe-Arg-AMC)
- Type: biochemical
- reported.conditions: 0.5 nM rhuman cathepsin K, Z-Phe-Arg-AMC substrate, 30 min pre-incubation, 1 h incubation at room temperature; mean of two separate occasions; read-out: CatK FRET Mean pIC50 (converted)
test.readout: IC50 (nM)
Quick note: give the figure in nM, leave out the unit.

Incoming: Data request, read-out IC50, for COCCn1c2c(c3ccccc31)CN(C(=O)[C@@H]1CCCC[C@H]1C(=O)NC1(C#N)CC1)CC2
Outgoing: 3.89

Incoming: Param item: N#CC1(NC(=O)[C@@H]2CCCC[C@H]2C(=O)N2CCc3[nH]c4cc(F)ccc4c3C2)CC1
Outgoing: 10.2

Incoming: Param item: N#CC1(NC(=O)[C@@H]2CCCC[C@H]2C(=O)N2CCc3c(c4ccccc4n3CC3CC3)C2)CC1
Outgoing: 3.45

Incoming: Param item: N#CC1(NC(=O)[C@@H]2CCCC[C@H]2C(=O)N2CCc3[nH]c4cccc(F)c4c3C2)CC1
Outgoing: 49.9

###

- assay.target: rhuman cathepsin K (Homo sapiens)
- experimental.details: Assay for identification of Cathepsin K inhibitors (QFRET, cleavage of Z-Phe-Arg-AMC)
- Assay type: biochemical
- reported.conditions: 0.5 nM rhuman cathepsin K, Z-Phe-Arg-AMC substrate, 30 min pre-incubation, 1 h incubation at room temperature; mean of two separate occasions; read-out: CatK FRET Mean pIC50 (converted)
// classify: if (IC50 < 2 nM) criterion met else criterion not met

Incoming: Check if IC50 falls below 2 nM for N#CC1(NC(=O)[C@@H]2CCCC[C@H]2C(=O)N2CCc3[nH]c4c(Br)cccc4c3C2)CC1 .
Outgoing: criterion not met

Incoming: Param item: N#CC1(NC(=O)[C@@H]2CCCC[C@H]2C(=O)N2CCc3[nH]c4c(C(F)(F)F)cccc4c3C2)CC1
Outgoing: criterion not met

Incoming: Param item: CS(=O)(=O)c1cccc2c3c([nH]c12)CCN(C(=O)[C@@H]1CCCC[C@H]1C(=O)NC1(C#N)CC1)C3
Outgoing: criterion not met

Incoming: Param item: COc1cccc2c3c([nH]c12)CCN(C(=O)[C@@H]1CCCC[C@H]1C(=O)NC1(C#N)CC1)C3
Outgoing: criterion met

Incoming: Param item: COc1ccc2[nH]c3c(c2c1)CN(C(=O)[C@@H]1CCCC[C@H]1C(=O)NC1(C#N)CC1)CC3
Outgoing: criterion not met

Incoming: Param item: COc1cc(F)cc2c3c([nH]c12)CCN(C(=O)[C@@H]1CCCC[C@H]1C(=O)NC1(C#N)CC1)C3
Outgoing: criterion met

Incoming: Param item: N#Cc1cccc2c3c([nH]c12)CCN(C(=O)[C@@H]1CCCC[C@H]1C(=O)NC1(C#N)CC1)C3
Outgoing: criterion met

Incoming: Param item: CC(C)c1ccc2[nH]c3c(c2c1)CN(C(=O)[C@@H]1CCCC[C@H]1C(=O)NC1(C#N)CC1)CC3
Outgoing: criterion not met

Incoming: Param item: N#CC1(NC(=O)[C@@H]2CCCC[C@H]2C(=O)N2CCc3[nH]c4c5c(ccc4c3C2)OC(F)(F)O5)CC1
Outgoing: criterion not met

Incoming: Param item: N#CC1(NC(=O)[C@@H]2CCCC[C@H]2C(=O)N2CCc3[nH]c4c(F)cccc4c3C2)CC1
Outgoing: criterion met

Incoming: Param item: CS(=O)(=O)n1c2c(c3ccccc31)CN(C(=O)[C@@H]1CCCC[C@H]1C(=O)NC1(C#N)CC1)CC2
Outgoing: criterion not met

Incoming: Param item: N#CC1(NC(=O)[C@@H]2CCCC[C@H]2C(=O)N2CCc3[nH]c4c(OCCN5CCCC5)cccc4c3C2)CC1
Outgoing: criterion met

Incoming: Param item: COC(=O)Cn1c2c(c3ccccc31)CN(C(=O)[C@@H]1CCCC[C@H]1C(=O)NC1(C#N)CC1)CC2
Outgoing: criterion not met

Incoming: Param item: N#CC1(NC(=O)[C@@H]2CCCC[C@H]2C(=O)N2CCc3[nH]c4c(Cl)cccc4c3C2)CC1
Outgoing: criterion met

Incoming: Param item: N#CC1(NC(=O)[C@@H]2CCCC[C@H]2C(=O)N2CCc3[nH]c4ccc(F)cc4c3C2)CC1
Outgoing: criterion met

Incoming: Param item: Cn1c2c(c3cccnc31)CN(C(=O)[C@@H]1CCCC[C@H]1C(=O)NC1(C#N)CC1)CC2
Outgoing: criterion met

Incoming: Param item: N#CC1(NC(=O)[C@@H]2CCCC[C@H]2C(=O)N2CCc3[nH]c4c(O)cccc4c3C2)CC1
Outgoing: criterion met

Incoming: Param item: N#CC1(NC(=O)[C@@H]2CCCC[C@H]2C(=O)N2Cc3ccccc3C3(CCNCC3)C2)CC1
Outgoing: criterion not met

Incoming: Param item: N#CC1(NC(=O)[C@@H]2CCCC[C@H]2C(=O)N2CCc3[nH]c4c(OC(F)(F)F)cccc4c3C2)CC1
Outgoing: criterion met

###

Provide the recorded IC50 for the entries that follow.
- assay.target: rhuman cathepsin K (Homo sapiens, UniProt P43235)
- experimental.details: Assay for identification of Cathepsin K inhibitors (QFRET, cleavage of Z-Phe-Arg-AMC)
- Type: biochemical
- reported.conditions: 0.5 nM rhuman cathepsin K, Z-Phe-Arg-AMC substrate, 30 min pre-incubation, 1 h incubation at room temperature; mean of two separate occasions; read-out: CatK FRET Mean pIC50 (converted)

Incoming: Data request, read-out IC50, for N#CC1(NC(=O)[C@@H]2CCCC[C@H]2C(=O)N2CCc3[nH]c4ccc(Br)cc4c3C2)CC1 [Example 5]
Outgoing: 6.38 nM

Incoming: Param item: N#CC1(NC(=O)[C@@H]2CCCC[C@H]2C(=O)N2CCc3[nH]c4c(OCCN5CCOCC5)cccc4c3C2)CC1 [Example 37]
Outgoing: 3.2 nM

Incoming: Param item: N#CC1(NC(=O)[C@@H]2CCCC[C@H]2C(=O)N2CCc3[nH]c4ccc(Cl)cc4c3C2)CC1 [Example 2]
Outgoing: 2.99 nM

Incoming: Param item: N#CC1(NC(=O)[C@@H]2CCCC[C@H]2C(=O)N2CCc3[nH]c4c(OCc5ccccc5)cccc4c3C2)CC1 [Example 32]
Outgoing: 1 nM
